test system: HS 578T breast; assay: NCI tumour cell line growth inhibition, 48 h; in the data active means GI50 below about 0.43 µM; inactive means the rest
Answer with one of the outcomes class 1 = active, class 0 = inactive

See these solved cases before continuing.
* N#Cc1ccc(-c2c(-c3ncn[nH]3)sc(N3CCOCC3)c2C#N)c(F)c1 | class 1
* O=C(NCCc1ccccc1)Nc1ccc2cc3ccc(NC(=O)NCCc4ccccc4)cc3nc2c1 | class 1
* COc1cc(-n2cc(-c3ccccc3)[nH]c2=O)cc(OC)c1OC | class 0

Q: Recorded test call requested for CCN(CC)c1c(-c2ccccc2)n[nH]c1C(=O)OC
Result: class 0

Q: Recorded test call requested for C[C@]12CC[C@@H]3c4ccc(O)cc4CC[C@H]3[C@@H]1CC[C@@H]2NS(=O)(=O)c1ccc(Br)cc1
Result: class 0

Q: Recorded test call requested for CCOC(=O)C(Cc1c[nH]c2cc(N(CCO)CCO)ccc12)(NC(C)=O)C(=O)OCC
Result: class 0

Q: Recorded test call requested for Cc1ccc(Nc2cc(Cl)c([N+](=O)[O-])cc2[N+](=O)[O-])cc1
Result: class 0

Q: Recorded test call requested for CC(C)(C)OC(=O)NCCCCn1c2c(c3ccccc3c1=O)C(=O)c1ccccc1-2
Result: class 0

* * *

test system: HCC-2998 colon; test: NCI tumour cell line growth inhibition, 48 h; in the data active = GI50 below about 0.43 µM; inactive = the rest
Answer with one of the outcomes active, inactive

See these solved cases before continuing.
* C/C=C/C/C=C/[C@H](C)C[C@H](O)[C@@H]1C[C@@H]2O[C@H]2/C=C/[C@@H]2OC(C)(C)O[C@H]2/C=C/C[C@H](C)CC(=O)O1 | inactive
* COCCOCCOCc1n(Cc2ccc3ccccc3c2)c2ccccc2[n+]1Cc1ccc2ccccc2c1 | inactive
* CCCOc1cc2ccccc2cc1C(=O)Nc1nc(NC)c2c(ccc3nccc32)[nH]1 | inactive
* Cc1ccc(S(=O)(=O)OCC#CCOS(=O)(=O)c2ccc(C)cc2)cc1 | inactive
* CCC1C(C)C=NN1c1nc(N)nc(C(C#N)=Nc2ccc(N(C)C)cc2)n1 (stereo not drawn) | inactive

Q: Recorded test call requested for CC(C)(C)c1cc(C(=O)Nc2ccc(C(=O)NCCN)cc2)cc(C(C)(C)C)c1
Result: inactive

Q: Recorded test call requested for O=C(Nc1cccc(-n2cc(-c3ccncc3)c(-c3ccc(O)c(Cl)c3)n2)c1)c1ccc2c(c1)OCCO2
Result: inactive

Q: Recorded test call requested for CC[C@@]1(OC(=O)CN(C)C)C(=O)OCc2c1cc1n(c2=O)Cc2cc3c(N)cccc3nc2-1
Result: active

* * *

system: HT29 colon; assay: NCI tumour cell line growth inhibition, 48 h; in the data active = GI50 below about 0.43 µM; inactive = the rest
Answer with one of the outcomes 1 for active, 0 for inactive

See these solved cases before continuing.
- Cc1c(Cl)c(=O)oc2cc(OC/C=C3\CCC(=O)O3)ccc12: 0
- CC(=O)Oc1ccc2c(c1)[C@@]1(C)CCCC(C)(C)[C@@H]1CC2: 0
- CCCOc1cc2ccccc2cc1C(=O)Nc1nc(NC)c2c(ccc3nccc32)[nH]1: 1
- O=C1/C=C/[C@@H](O)[C@@H]2C[C@@H](O)C[C@H]2/C=C/CCC[C@H](CCc2ccc3ncccc3c2)O1: 1
- Nc1nonc1-c1nc2ccccc2n1Cc1ccc(F)cc1: 0

// next entry
Q: Recorded test call requested for NCCCOc1cc2ccccc2cc1C(=O)Nc1ccc(Cl)cc1OC(=O)c1cc2ccccc2cc1OCCCN
Result: 1

* * *

Reported TGI values for the following compounds.
tested on: K-562 leukemia; assay: NCI tumour cell line growth inhibition, 48 h

Previously resolved entries follow.
- O=[P+](O)c1ccccn1: > 100 µM
- Cc1c(O)c(OC2OC(CO)C(O)C(O)C2O)cc2c1CC[C@@H]1C2(C)C(=O)C[C@]2(C)[C@@H]([C@@](C)(O)C3CCC(C)(C)O3)[C@H](O)C[C@@]12C (stereo partly drawn): > 100 µM
- O=C(O)[C@@H]1OCCOCCO[C@@H](C(=O)O)[C@H](C(=O)O)OCCOCCO[C@H]1C(=O)O: > 100 µM
- COc1cc2c(cc1OC)C1c3ccccc3CCN1CCC2 (stereo not drawn): > 100 µM

Q: // Input: O=C(CC(O)(C(F)(F)F)C(F)(F)Cl)CC(O)(C(F)(F)F)C(F)(F)Cl (stereo not drawn) . Output its TGI only.
Result: > 10 µM

Q: // Input: N#Cc1ccc(-c2c(-c3ncn[nH]3)sc(N3CCOCC3)c2C#N)c(F)c1 . Output its TGI only.
Result: > 100 µM

Q: // Input: c1ccc2c(c1)nn1c3ccc4nonc4c3[n-][n+]21 . Output its TGI only.
Result: > 100 µM

Q: // Input: CCOC(=O)C(=O)Nc1cc(Cl)c(Cl)cc1Cl . Output its TGI only.
Result: > 100 µM

* * *

Reported GI50 values for the following molecules.
test system: SNB-75 CNS; assay: NCI tumour cell line growth inhibition, 48 h

Previously resolved entries follow.
• CCC1C(C)C=NN1c1nc(N)nc(C(C#N)=Nc2ccc(N(C)C)cc2)n1 (stereo unspecified) = 8.95 µM
• CC1=C(/C=C/C(=O)CC(=O)/C=C/C2=C(C)CCCC2(C)C)C(C)(C)CCC1 = 49.6 µM
• O=S(=O)(NCCNc1nccc(-c2c(-c3ccc(F)c(O)c3)nc3sccn23)n1)c1ccc(Cl)cc1 = 1.13 µM
• O=[N+]([O-])c1cccc(-c2nc(-c3ccc(Cl)cc3Cl)cn2-c2ccccc2)c1 = 0.509 µM
• CC(C)(C)c1cc(C(=O)Nc2ccc(C(=O)NCCN)cc2)cc(C(C)(C)C)c1 = 4.02 µM

Lab note: next molecule to report on.
Q: // Input: Nc1c(C(=O)Nc2ccccn2)sc2nc3c(cc12)C(O)CCC3 (stereo unspecified) . Output its GI50 only.
Result: 1.66 µM

* * *

test system: SNB-19 CNS; experiment: NCI tumour cell line growth inhibition, 48 h
Quantity measured: GI50

• CCOC(=O)C(Cc1c[nH]c2cc(N(CCO)CCO)ccc12)(NC(C)=O)C(=O)OCC = > 1000 µM
• O=C(O)c1cc2ccccc2c2c3c(ccc12)OCO3 = 152 µM
• Cc1cc(C(=O)Nc2n[nH]c3ccccc23)n[nH]1 = > 100 µM

Q: // Input: CCCCCCCCCCCCCCCCCCNCc1ccc(Cl)cc1 . Output its GI50 only.
Result: 3.31 µM

Q: // Input: CC(C)(C)c1cc(C(=O)Nc2ccc(C(=O)NCCN)cc2)cc(C(C)(C)C)c1 . Output its GI50 only.
Result: 3.65 µM

* * *

test system: MALME-3M melanoma; assay: NCI tumour cell line growth inhibition, 48 h
Reported TGI values for the following compounds.
Answer format: numeric, nM implied, no suffix.

Previously resolved entries follow.
* CNCCN[C@@H]1c2cc3c(cc2[C@@H](c2cc(OC)c(O)c(OC)c2)[C@H]2C(=O)OC[C@@H]21)OCO3 | 1830
* O=[N+]([O-])C1=Cc2cc(Cl)ccc2OC1c1cccc2ccccc12 (stereo not drawn) | 2910
* CC(=O)NC1C(OC(C)C(=O)NC(C(=O)NC(CCC(=O)NCCCNC2c3ccccc3Nc3cccc([N+](=O)[O-])c32)C(N)=O)C(C)C)C(O)C(CO)OC1(C)OCc1ccccc1 (stereo not drawn) | 2690

Q: // Input: CCCOc1cc2ccccc2cc1C(=O)Nc1nc(NC)c2c(ccc3nccc32)[nH]1 . Output its TGI only.
Result: 2540

* * *

Reported TGI values for the following compounds.
tested on: SK-MEL-2 melanoma; assay: NCI tumour cell line growth inhibition, 48 h
Answer format: numeric, µM implied, no suffix.

Previously resolved entries follow.
• OC(c1ccc(Cl)cc1)(c1ccc(Cl)cc1)c1cncnc1 = 32
• O=S(=O)(NCCNc1nccc(-c2c(-c3ccc(F)c(O)c3)nc3sccn23)n1)c1ccc(Cl)cc1 = 7.99
• CCOC(=O)C(C)Sc1nnc(COc2ccc(Cl)cc2)n1-c1ccccc1 (stereo not given) = 28.4

Q: // Input: COC(=O)c1cccc2c3ccccc3c3ccccc3c12 . Output its TGI only.
Result: 58.7

* * *

tested on: BT-549 breast; assay: NCI tumour cell line growth inhibition, 48 h
Reported TGI values for the following compounds.
Answer format: numeric, µM implied, no suffix.

* COc1cc2cc(C(=O)N3CC(CCl)c4ccc([N+](C)(C)Cc5ccc([N+](=O)[O-])cc5)cc43)[nH]c2c(OC)c1OC (centres undefined) | 35.6
* O=[N+]([O-])c1ccc(-n2nc3ccc4c(no[n+]4[O-])c3[n+]2[O-])c([N+](=O)[O-])c1 | 9.49
* O=C(Nn1c(-c2cccs2)nc2ccc(I)cc2c1=O)c1ccccc1 | 51.9

Q: // Input: O=[N+]([O-])C1=Cc2cc(Cl)ccc2OC1c1cccc2ccccc12 (centres undefined) . Output its TGI only.
Result: 1.01

Q: // Input: CN(C)CCCNc1ccc2nnn3c4ccc(OC(=O)c5ccccc5)cc4c(=O)c1c23 . Output its TGI only.
Result: 32.7

The measurements presented in this section are drawn from PubChem BioAssay (NCI).
